Recorded values, source patent US8932597B2.

Signal (peptides that bind to 23K21 and 8I10) by entry:
- Test system: HuM2e antibody 23K12
- Assay type: binding, human
Give the value as a plain number.

529 (SLLTEVETNIRNEWGCRCNDSSD; epitope peptide) [compound 529]: 978
367 (SLCTEVGSLLTEC; epitope peptide) [compound 367]: 1495
628 (SLLTEVETPIRNEWGCRCMDSSD; epitope peptide) [compound 628]: 786
691 (SLLTEVETPIRNEWGCRMNDSSD; epitope peptide) [compound 691]: 722
718 (SLLTEVECPIRNEWGCRCNDSSD; epitope peptide) [compound 718]: 700

Note: attention shifts to another entry.
Query block: Param item = 638 (SLLTEVETPIRNEWGTRCNDSSD; epitope peptide) [compound 638] ; retrieve measured Signal (peptides that bind to 23K21 and 8I10).
Result block: 767
